- Tgt: human, citrated, platelet-rich plasma (Homo sapiens, UniProt P05106+P08514)
- Construct: aggregating human, citrated, platelet-rich plasma; endogenous in cells; host or cells: human platelets in citrated platelet-rich plasma
- Assay method text: Test (a): inhibition of ADP stimulated platelet aggregation (Born)
- Format: cell-based
- Measurement context: ADP induced aggregation of human platelet-rich plasma; read-out: Test (a): pA2 value indicating potency of platelet aggregation inhibition (converted)
Structures can show the parent of a compound that is named as a salt.
Measurement label: Kb (nM)
Give bare numbers, in nM.

O=C(O)COc1cccc(C(=O)CN2CCN(c3ccncc3)CC2)c1 [Example 126, dihydrochloride]    15800

Respectfully, I request Kb for each entry included below.
1. O=C(CN1CCN(c2ccncc2)CC1)c1ccc(OCc2nnn[nH]2)cc1
2. CCCCS(=O)(=O)NC(CC(=O)OC)c1ccc(OCC2CCN(c3ccncc3)CC2)cc1 (stereo not shown)

31600
3980

Report Kb for every entry below.
1. CCOC(=O)CCCOc1ccc(N2CCN(c3ccncc3)CC2)cc1[N+](=O)[O-]
2. O=C(O)COc1ccc(C(=O)CN2CCN(c3ccncc3)CC2)c2ccccc12 [Example 124, dihydrochloride]
3. CCCCS(=O)(=O)NCc1ccc(CCN2CCN(c3ccncc3)CC2)cc1
4. O=C(O)COc1ccc(OCCC2CCN(c3ccncc3)CC2)cc1
5. CCOC(=O)COc1ccc(C(=O)CN2CCN(c3ccncc3)CC2=O)cc1

1. 316
2. 794
3. 3980
4. 794
5. 126

Your task in this section: give Kb for each listed record.
1. COC(=O)COc1ccc(C(=O)C(C)(C)N2CCN(c3ccncc3)CC2)cc1
2. COC(=O)[C@H](Cc1ccc(OCCC2CCN(c3ccncc3)CC2)cc1)NS(=O)(=O)c1ccc(C)cc1
3. CCCCS(=O)(=O)N[C@@H](Cc1ccc(OCCCCC2CCN(c3ccncc3)CC2)cc1)C(=O)OC
4. CCOC(=O)COc1ccc(C(=O)CN2CCN(c3ccncc3)CC2)cc1
5. COC(=O)CCNC(=O)CCCCN1CCN(c2ccncc2)CC1
6. COC(=O)Cc1ccc(C(=O)CN2CCN(c3ccncc3)CC2)cc1

[1260, 2510, 39800, 126, 63100, 5010]

Please state Kb for every compound in the list that follows.
1. CCOC(=O)C1CCN(C(=O)CN2CCN(c3ccncc3)CC2)CC1
2. CCOC(=O)CCCOc1ccc(N2CCN(c3ccncc3)CC2=O)cc1
3. C=CCc1cc(N2CCN(c3ccncc3)CC2)ccc1OCCCC(=O)O

7940
316
251

* * *

Would you kindly list IC50 for each of these compounds?
- Tgt: purified human platelet fibrinogen receptor (GPIIb/IIIa) (Homo sapiens, UniProt P05106+P08514)
- Construct: is isolated from human platelet lysates; from tissue
- Sequence (P08514 32-887 limits assumed): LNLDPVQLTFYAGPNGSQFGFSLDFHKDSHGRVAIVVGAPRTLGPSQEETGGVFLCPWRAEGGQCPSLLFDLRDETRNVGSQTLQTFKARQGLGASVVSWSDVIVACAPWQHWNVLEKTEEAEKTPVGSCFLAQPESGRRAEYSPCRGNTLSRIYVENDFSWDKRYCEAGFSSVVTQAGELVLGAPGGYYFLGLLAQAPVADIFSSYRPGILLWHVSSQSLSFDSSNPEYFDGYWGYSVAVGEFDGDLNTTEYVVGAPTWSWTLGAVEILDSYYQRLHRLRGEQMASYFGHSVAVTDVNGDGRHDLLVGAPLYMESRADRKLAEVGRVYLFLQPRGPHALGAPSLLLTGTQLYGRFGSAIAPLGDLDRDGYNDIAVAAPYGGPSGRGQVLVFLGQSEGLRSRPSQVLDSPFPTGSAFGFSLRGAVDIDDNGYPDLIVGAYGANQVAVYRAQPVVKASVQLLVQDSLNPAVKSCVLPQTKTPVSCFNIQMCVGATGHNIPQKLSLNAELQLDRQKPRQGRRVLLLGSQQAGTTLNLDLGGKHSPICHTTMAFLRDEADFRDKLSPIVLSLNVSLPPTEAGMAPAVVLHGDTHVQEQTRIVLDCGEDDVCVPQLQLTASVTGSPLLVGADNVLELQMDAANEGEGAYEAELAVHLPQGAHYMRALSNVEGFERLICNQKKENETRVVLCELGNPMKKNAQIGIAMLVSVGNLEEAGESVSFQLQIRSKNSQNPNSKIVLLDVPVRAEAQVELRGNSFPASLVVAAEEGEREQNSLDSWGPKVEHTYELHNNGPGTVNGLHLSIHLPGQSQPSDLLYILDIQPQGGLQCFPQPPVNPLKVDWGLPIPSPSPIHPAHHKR
- Sequence (P08514 891-1039 limits assumed): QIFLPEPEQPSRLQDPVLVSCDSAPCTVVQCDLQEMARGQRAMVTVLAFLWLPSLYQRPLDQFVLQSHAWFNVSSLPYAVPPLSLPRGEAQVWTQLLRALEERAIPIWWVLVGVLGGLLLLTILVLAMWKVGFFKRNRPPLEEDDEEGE
- Sequence (P05106 27-788): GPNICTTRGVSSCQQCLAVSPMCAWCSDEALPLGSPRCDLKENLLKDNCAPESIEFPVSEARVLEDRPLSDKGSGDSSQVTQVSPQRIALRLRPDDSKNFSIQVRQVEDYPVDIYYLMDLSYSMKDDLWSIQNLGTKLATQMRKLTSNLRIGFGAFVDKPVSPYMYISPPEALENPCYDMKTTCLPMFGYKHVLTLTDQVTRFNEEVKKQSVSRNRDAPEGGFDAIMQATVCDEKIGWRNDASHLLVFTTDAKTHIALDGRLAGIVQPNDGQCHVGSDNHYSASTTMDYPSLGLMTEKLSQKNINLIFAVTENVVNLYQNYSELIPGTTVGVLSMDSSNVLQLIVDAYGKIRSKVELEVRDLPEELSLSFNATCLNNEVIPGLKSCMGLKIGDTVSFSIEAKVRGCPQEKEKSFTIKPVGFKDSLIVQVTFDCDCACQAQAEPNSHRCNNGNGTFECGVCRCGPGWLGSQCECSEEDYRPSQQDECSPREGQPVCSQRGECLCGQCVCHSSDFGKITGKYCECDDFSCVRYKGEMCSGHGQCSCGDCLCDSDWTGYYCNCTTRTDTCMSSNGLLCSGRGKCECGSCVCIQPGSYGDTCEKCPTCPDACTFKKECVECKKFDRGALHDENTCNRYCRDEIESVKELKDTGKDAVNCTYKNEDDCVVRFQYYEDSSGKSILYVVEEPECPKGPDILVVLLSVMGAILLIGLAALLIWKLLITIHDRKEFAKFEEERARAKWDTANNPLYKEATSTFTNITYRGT
- Assay method text: Test (b): GPIIb/IIIa ELISA, inhibition of biotinylated fibrinogen binding
- Measurement context: purified human platelet GPIIb/IIIa, ELISA; read-out: Test (b): pIC50 (-log(IC50)), 50% inhibition of biotinylated fibrinogen binding to GPIIb/IIIa (converted)
Structures can show the parent of a compound that is named as a salt.

Observe how each entry below is paired with its result.
COC(=O)Cc1ccc(C(=O)CN2CCN(c3ccncc3)CC2)cc1    15.8 to 39.8 µM
COCCNC(=O)COC1CCN(C(=O)CN2CCN(c3ccncc3)CC2)CC1    > 100 µM
O=C(O)CC1CCN(C(=O)CN2CCN(c3ccncc3)CC2)CC1    1.26 µM
COC(=O)[C@H](Cc1ccc(OCCC2CCN(c3ccncc3)CC2)cc1)NS(=O)(=O)c1ccc(C)cc1    0.0631 µM

Would you be so kind as to report IC50 for each listed record?
1. Cc1cc(N2CCN(CC(=O)c3ccc(OCC(=O)O)cc3)CC2)c2ccccc2n1
2. COc1cc(OCC(=O)O)ccc1C(=O)CN1CCN(c2ccncc2)CC1 [Example 128, dihydrochloride]

1: 6.31 µM; 2: 0.501 µM

* * *

- Tgt: human, citrated, platelet-rich plasma (Homo sapiens, UniProt P05106+P08514)
- Construct: aggregating human, citrated, platelet-rich plasma; endogenous in cells; host or cells: human platelets in citrated platelet-rich plasma
- Assay method text: Test (a): inhibition of ADP stimulated platelet aggregation (Born)
- Assay type: cell-based
- Measurement context: ADP induced aggregation of human platelet-rich plasma; read-out: Test (a): pA2 value indicating potency of platelet aggregation inhibition (converted)
Outcome: YES for Kb of at least 300 nM; NO for anything lower.

CCCCS(=O)(=O)NCCc1ccc(C(=O)CN2CCN(c3ccncc3)CC2)cc1    YES
COC(=O)COc1ccc(C(=O)C(C)N2CCN(c3ccncc3)CC2)cc1OCC(=O)OC (stereo not drawn)    NO
CCCc1cc(C(=O)CN2CCN(c3ccncc3)CC2=O)ccc1OCC(=O)O    NO
O=C(O)CC1CCN(C(=O)CN2CCN(c3ccncc3)CC2)CC1    YES

Proceed to the following item.
I'd appreciate it if you could say whether CCCCS(=O)(=O)NC(Cc1ccc(CN2CCN(c3ccncc3)CC2)cc1)C(=O)O (racemic) has Kb at least equal to 300 nM. YES

* * *

- Tgt: human, citrated, platelet-rich plasma (Homo sapiens, UniProt P05106+P08514)
- Construct: aggregating human, citrated, platelet-rich plasma; endogenous in cells; host or cells: human platelets in citrated platelet-rich plasma
- Assay method text: Test (a): inhibition of ADP stimulated platelet aggregation (Born)
- Type: cell-based
- Measurement context: ADP induced aggregation of human platelet-rich plasma; read-out: Test (a): pA2 value indicating potency of platelet aggregation inhibition (converted)
Counter-ions that a name gives are not always drawn.
Exercise: state measured Kb for each of the compounds provided.

Go through the items and report each one's Kb.
1. CCCCS(=O)(=O)NCc1ccc(C(=O)CN2CCN(c3ccncc3)CC2)cc1
2. O=C(O)COc1ccc(C(=O)CC2CCN(c3ccncc3)CC2)cc1 [Example 174, hydrochloride]
3. O=C(O)CCCOc1ccc(N2CCN(c3ccncc3)CC2)cc1 [Example 51]
4. COC(=O)COc1ccc(C(=O)CN2CCN(c3cc(C)nc4ccccc34)CC2)cc1
5. Cc1ccc(S(=O)(=O)NCc2ccc(C(=O)CN3CCN(c4ccncc4)CC3)cc2)cc1

1: 0.126 to 0.2 µM; 2: 0.158 to 0.398 µM; 3: 0.0126 to 0.1 µM; 4: > 100 µM; 5: 0.0631 to 0.158 µM
